# subject of test: pooled human IgG (human IgG1,2,3 and 4)
measurement kind: Enzyme Activity Endpoint Assay: Fc (ng/µL)

{"columns": ["protein", "measurement kind", "observed value"],
 "data": [
  ["PRT-478 (protein) MITSVWTKGVTPPTDFIYGEDVLHAPYKAGQGWYDITKAFDGGDDLLCGAATAGNMLHWWFDQNKEQIENYLKKHPEKQKINFNGEQMFDVKEAIDTKDSQTNSELFNYFKEKAFPYLSTKHLGVFPDHVIDMFINGYRLSLTNHGPTPVKRQEKDPRGGIFDAVFGRGDQTKLLTNRHDFKEKTLNEISQLIKQELTEGKALGISHTYANVRINHVINLWGADFDAEGNLEAIYVTDSDSNASIGMKKYFVGVNSNGKVAISAKEIEEDNIGAQVLGLFTLSTGQKIWNKTNLEHHHHHH", "Enzyme Activity Endpoint Assay: Fc", 453],
  ["PRT-174 (protein) MANQEIRYSEVTPYHVTSVWTKGVTPPANFTQGEDVFHAPYVANQGWYDITKTFNGKDDLLCGAATAGNMLHWWFDQNKDQIKRYLEEHPEKQKINFNGEQMFDVKEAIDTKNHQLDSKLFEYFKEKAFPYLSTKHLGVFPDHVIDMFINGYRLSLTNHGPTPVKEGSKDPRGGIFDAVFTRGDQSKLLTSRHDFKEKNLKEISDLIKKELTEGKALGLSHTYANVRINHVINLWGADFDSNGNLKAIYVTDSDSNASIGMKKYFVGKNASGKVAISAKEIEDENIGAQVLGLFTLSTGQDSWNQTN", "Enzyme Activity Endpoint Assay: Fc", 160],
  ["PRT-454 (protein) MITSVWTKGVTPPTDFIKGEDVFHAPYKAGQGWYDITKAFDGGDDLLCGAATAGNMLHWWFDQNKDQIEAYLKEHPEKQKINFNGEQMFDVKEAIDTKDDQTNSELFNYFKEKAFPYLSTKHLGVFPDHVLDMFINGYRLSLTNHGPTPVKRQEKDPRGGIFDAVFGRGDQTKLLTSRHDFKEKTLNEISQLIKQELTEGKALALSHTYANVRINHVINLWGADFDAEGNLEAIYVTDSDSNASIGMKKYFVGVNSAGKVAISAKEIEDDNIGAQVLGLFTLSTGQKIWNKTNLEHHHHHH", "Enzyme Activity Endpoint Assay: Fc", 317],
  ["PRT-172 (protein) MANQEIRYSEVTPYHVTSVWTKGVKPPTDFIKGEDVFHAPYKAHQGWYDITKTFNGKDDLLCGAATAGNMLHWWFDQNKDQIKRYLEEHPEKQKINFNGEQMFDVKEAIDTKNSQLDSKLFEYFKEKAFPYLSTKHLGVFPDHVIDMFINGYRLSLTNHGPTPVKEGSKDPRGGIFDAVFTRGDQSKLLTSRHDFKEKNLKEISDLIKKELTEGKALGLSHTYANVRINHVINLWGADFDSNGNLKAIYVTDSDSNASIGMKKYFVGVNSAGKVAISAKEIKEDNIGAQVLGLFTLSTGQDSWNQTN", "Enzyme Activity Endpoint Assay: Fc", 215]
]}
